The measurements presented in this section are drawn from patent US20240400708A1.

For each of the binders below, state its Kd.
Measured target: feline FcRn complex (FcRn-α subunit and β-microglobulin), biotin labeled (feline)
Test: SPR, pH 7.4
A number alone suffices; assume µM.

Task item: Name the reported Kd value associated with the binder feline IgG1a S428Y/Q311W/S434Y (antibody, part only; not given: Variable domains, not shown: another chain or arm of the molecule; small tags and cut ends) constant: ASTTAPSVFPLAPSCGTTSGATVALACLVLGYFPEPVTVSWNSGALTSGVHTFPAVLQASGLYSLSSMVTVPSSRWLSDTFTCNVAHPPSNTKVDKTVRKTDHPPGPKPCDCPKCPPPEMLGGPSIFIFPPKPKDTLSISRTPEVTCLVVDLGPDDSDVQITWFVDNTQVYTAKTSPREEQFNSTYRVVSVLPILHWDWLKGKEFKCKVNSKSLPSPIERTISKAKGQPHEPQVYVLPPAQEELSRNKVSVTCLIKSFHPPDIAVEWEITGQPEPENNYRTTPPQLDSDGTYFVYSKLSVDRSHWQRGNTYTCSVYHEALHYHHTQKSLTQSPGK
Reply: 1.51

Task item: GET /values?readout=Kd&item= feline IgG1a S252F/S434Y (antibody, part only; not given: Variable domains, not shown: another chain or arm of the molecule) constant: ASTTAPSVFPLAPSCGTTSGATVALACLVLGYFPEPVTVSWNSGALTSGVHTFPAVLQASGLYSLSSMVTVPSSRWLSDTFTCNVAHPPSNTKVDKTVRKTDHPPGPKPCDCPKCPPPEMLGGPSIFIFPPKPKDTLFISRTPEVTCLVVDLGPDDSDVQITWFVDNTQVYTAKTSPREEQFNSTYRVVSVLPILHQDWLKGKEFKCKVNSKSLPSPIERTISKAKGQPHEPQVYVLPPAQEELSRNKVSVTCLIKSFHPPDIAVEWEITGQPEPENNYRTTPPQLDSDGTYFVYSKLSVDRSHWQRGNTYTCSVSHEALHYHHTQKSLTQSPGK
Reply: 1.47

Task item: I'd like to know its Kd. The binder in question is feline IgG1a S428Y/S434Y (antibody, part only; not given: Variable domains, not shown: another chain or arm of the molecule) constant: ASTTAPSVFPLAPSCGTTSGATVALACLVLGYFPEPVTVSWNSGALTSGVHTFPAVLQASGLYSLSSMVTVPSSRWLSDTFTCNVAHPPSNTKVDKTVRKTDHPPGPKPCDCPKCPPPEMLGGPSIFIFPPKPKDTLSISRTPEVTCLVVDLGPDDSDVQITWFVDNTQVYTAKTSPREEQFNSTYRVVSVLPILHQDWLKGKEFKCKVNSKSLPSPIERTISKAKGQPHEPQVYVLPPAQEELSRNKVSVTCLIKSFHPPDIAVEWEITGQPEPENNYRTTPPQLDSDGTYFVYSKLSVDRSHWQRGNTYTCSVYHEALHYHHTQKSLTQSPGK
Reply: 0.235

Task item: Would you kindly share the measured Kd for feline IgG1a S252H/S434Y (antibody, part only; not given: Variable domains, not shown: another chain or arm of the molecule) constant: ASTTAPSVFPLAPSCGTTSGATVALACLVLGYFPEPVTVSWNSGALTSGVHTFPAVLQASGLYSLSSMVTVPSSRWLSDTFTCNVAHPPSNTKVDKTVRKTDHPPGPKPCDCPKCPPPEMLGGPSIFIFPPKPKDTLHISRTPEVTCLVVDLGPDDSDVQITWFVDNTQVYTAKTSPREEQFNSTYRVVSVLPILHQDWLKGKEFKCKVNSKSLPSPIERTISKAKGQPHEPQVYVLPPAQEELSRNKVSVTCLIKSFHPPDIAVEWEITGQPEPENNYRTTPPQLDSDGTYFVYSKLSVDRSHWQRGNTYTCSVSHEALHYHHTQKSLTQSPGK ?
Reply: 0.0125

Task item: Requested field: Kd. Item: feline IgG1a S252Y/S428M/Q311Y (antibody, part only; not given: Variable domains, not shown: another chain or arm of the molecule) constant: ASTTAPSVFPLAPSCGTTSGATVALACLVLGYFPEPVTVSWNSGALTSGVHTFPAVLQASGLYSLSSMVTVPSSRWLSDTFTCNVAHPPSNTKVDKTVRKTDHPPGPKPCDCPKCPPPEMLGGPSIFIFPPKPKDTLYISRTPEVTCLVVDLGPDDSDVQITWFVDNTQVYTAKTSPREEQFNSTYRVVSVLPILHYDWLKGKEFKCKVNSKSLPSPIERTISKAKGQPHEPQVYVLPPAQEELSRNKVSVTCLIKSFHPPDIAVEWEITGQPEPENNYRTTPPQLDSDGTYFVYSKLSVDRSHWQRGNTYTCSVMHEALHSHHTQKSLTQSPGK
Reply: 0.0399

Task item: Query (binder): feline IgG1a S252H/S428M/S434F (antibody, part only; not given: Variable domains, not shown: another chain or arm of the molecule) constant: ASTTAPSVFPLAPSCGTTSGATVALACLVLGYFPEPVTVSWNSGALTSGVHTFPAVLQASGLYSLSSMVTVPSSRWLSDTFTCNVAHPPSNTKVDKTVRKTDHPPGPKPCDCPKCPPPEMLGGPSIFIFPPKPKDTLHISRTPEVTCLVVDLGPDDSDVQITWFVDNTQVYTAKTSPREEQFNSTYRVVSVLPILHQDWLKGKEFKCKVNSKSLPSPIERTISKAKGQPHEPQVYVLPPAQEELSRNKVSVTCLIKSFHPPDIAVEWEITGQPEPENNYRTTPPQLDSDGTYFVYSKLSVDRSHWQRGNTYTCSVMHEALHFHHTQKSLTQSPGK ; field requested: Kd
Reply: 0.0269

Task item: Give its Kd value. Item: feline IgG1a S252Y (antibody, part only; not given: Variable domains, not shown: another chain or arm of the molecule) constant: ASTTAPSVFPLAPSCGTTSGATVALACLVLGYFPEPVTVSWNSGALTSGVHTFPAVLQASGLYSLSSMVTVPSSRWLSDTFTCNVAHPPSNTKVDKTVRKTDHPPGPKPCDCPKCPPPEMLGGPSIFIFPPKPKDTLYISRTPEVTCLVVDLGPDDSDVQITWFVDNTQVYTAKTSPREEQFNSTYRVVSVLPILHQDWLKGKEFKCKVNSKSLPSPIERTISKAKGQPHEPQVYVLPPAQEELSRNKVSVTCLIKSFHPPDIAVEWEITGQPEPENNYRTTPPQLDSDGTYFVYSKLSVDRSHWQRGNTYTCSVSHEALHSHHTQKSLTQSPGK
Reply: 12.7

Task item: # lookup: Kd of feline IgG1a S252H/S428M (antibody, part only; not given: Variable domains, not shown: another chain or arm of the molecule; small tags and cut ends) constant: ASTTAPSVFPLAPSCGTTSGATVALACLVLGYFPEPVTVSWNSGALTSGVHTFPAVLQASGLYSLSSMVTVPSSRWLSDTFTCNVAHPPSNTKVDKTVRKTDHPPGPKPCDCPKCPPPEMLGGPSIFIFPPKPKDTLHISRTPEVTCLVVDLGPDDSDVQITWFVDNTQVYTAKTSPREEQFNSTYRVVSVLPILHQDWLKGKEFKCKVNSKSLPSPIERTISKAKGQPHEPQVYVLPPAQEELSRNKVSVTCLIKSFHPPDIAVEWEITGQPEPENNYRTTPPQLDSDGTYFVYSKLSVDRSHWQRGNTYTCSVMHEALHSHHTQKSLTQSPGK
Reply: 0.101
